These measurements were taken from patent US11497731B2.

target: UniProt P52699; assay: Inhibition constant (Ki) measurement test, IMP-1; type: biochemical; conditions: imipenem substrate, enzyme 10 nM, 30° C., Lineweaver-Burk; read-out: Inhibition constant Ki IMP-1
Sequence (P52699 19-246, looked up, species assumed): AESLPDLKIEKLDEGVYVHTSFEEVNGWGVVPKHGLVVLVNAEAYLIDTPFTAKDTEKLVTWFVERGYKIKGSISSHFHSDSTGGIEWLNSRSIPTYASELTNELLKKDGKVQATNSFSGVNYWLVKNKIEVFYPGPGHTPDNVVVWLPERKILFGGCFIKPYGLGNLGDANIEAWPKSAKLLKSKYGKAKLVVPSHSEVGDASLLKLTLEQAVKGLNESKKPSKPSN
readout_name: pKi
// returns pKi (minus log10 of molar concentration), number only

| compound_smiles | pKi |
| --- | --- |
| Cc1c(C(=O)O)c(S(N)(=O)=O)c(C)n1-c1ccccc1 | 5.12 |
| CCCc1oc(CCC)c(S(N)(=O)=O)c1C(=O)O | 6.42 |
| NS(=O)(=O)c1c(C2CCCC2)oc(C2CCCC2)c1C(=O)O | 5.90 |

--- query ---
Recorded pKi for NS(=O)(=O)c1sccc1C(=O)O , please?
4.47
